For each of the compounds below, state its inhibition.
Biological target: Serine/threonine-protein kinase Sgk2 (Homo sapiens) (UniProt Q9HBY8)
Sequence (Q9HBY8 whole entry): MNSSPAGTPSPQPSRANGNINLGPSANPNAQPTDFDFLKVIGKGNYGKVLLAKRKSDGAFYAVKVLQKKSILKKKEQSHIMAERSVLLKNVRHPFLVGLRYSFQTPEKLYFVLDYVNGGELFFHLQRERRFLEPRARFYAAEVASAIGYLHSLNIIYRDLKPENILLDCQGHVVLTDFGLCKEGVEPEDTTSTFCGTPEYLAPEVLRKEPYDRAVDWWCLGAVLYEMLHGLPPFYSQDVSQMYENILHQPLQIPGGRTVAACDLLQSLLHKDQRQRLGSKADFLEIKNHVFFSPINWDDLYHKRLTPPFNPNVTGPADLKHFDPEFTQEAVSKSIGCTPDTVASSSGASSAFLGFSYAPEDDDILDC
Conditions: at 1 µM
Description: GSK_PKIS: SGK2 mean inhibition at 1 uM [Nanosyn]
One number for each entry, in %.

Below, 8 compounds whose answers are already recorded.
1. CCCN(CCS(C)(=O)=O)Cc1ccc(-c2ccc3ncnc(Nc4ccc(OCc5cccc(F)c5)c(Cl)c4)c3c2)o1 = -0.86
2. Nc1nc(-c2ccc(F)cc2)c(-c2ccc3ncccc3n2)s1 = 4.34
3. CNC(=O)c1cncc(/C=C/c2ccccc2Cl)c1 = 1.73
4. N#Cc1c(NC(=O)CN2CCOCC2)sc2c1CCCC2 = 4.38
5. NS(=O)(=O)c1ccc(N/N=C2\C(=O)Nc3ccc4ncccc4c32)cc1 = 21.3
6. CC(C)COC(=O)c1ccc2c(c1)/C(=C/Nc1ccc(S(N)(=O)=O)cc1)C(=O)N2 = 1.89
7. O=C(O[C@H]1CN[C@H](C#Cc2cc3ncnc(Nc4ccc(Cc5ccccc5)cc4)c3s2)C1)N1CCOCC1 = 7.04
8. COc1ccc(-c2nn3ncccc3c2-c2ccnc(Nc3ccc4c(c3)OCCO4)n2)cc1 = 0.9

For the 2 compounds below, give their inhibition values.
1. Cc1cccc(Nc2ncc(-c3ccccc3)o2)c1
2. COc1cc(N2CCN(C(C)C)CC2)ccc1Nc1nc(Nc2ccc(F)cc2C(N)=O)c2cc[nH]c2n1

Response given:
1: 2.16; 2: -3.53

* * *

Target: Protein-tyrosine kinase 6 (Homo sapiens) (UniProt Q13882)
Sequence (Q13882 whole entry, looked up): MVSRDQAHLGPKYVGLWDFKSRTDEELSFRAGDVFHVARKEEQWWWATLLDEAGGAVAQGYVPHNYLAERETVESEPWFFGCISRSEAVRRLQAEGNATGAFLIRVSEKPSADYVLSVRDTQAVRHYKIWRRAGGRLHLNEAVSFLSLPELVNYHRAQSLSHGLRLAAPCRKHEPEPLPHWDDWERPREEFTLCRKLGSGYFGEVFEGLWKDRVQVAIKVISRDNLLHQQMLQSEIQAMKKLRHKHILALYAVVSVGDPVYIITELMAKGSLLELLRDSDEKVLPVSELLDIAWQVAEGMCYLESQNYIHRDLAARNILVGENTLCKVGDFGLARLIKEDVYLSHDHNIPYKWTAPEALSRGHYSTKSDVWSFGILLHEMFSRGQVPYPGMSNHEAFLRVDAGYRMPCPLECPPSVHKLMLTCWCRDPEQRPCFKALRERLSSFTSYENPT
Settings: at 0.1 µM
Description: GSK_PKIS: BRK mean inhibition at 0.1 uM [Nanosyn]
Provide the recorded inhibition for the entries that follow.
Answers are plain numbers, in %.

1) CNC(=O)c1cccc(C#Cc2cncnc2Nc2ccc(OCc3cccc(F)c3)c(Cl)c2)c1 = -0.91
2) Cc1ccc(O)cc1Nc1ccnc2cc(-c3ccccn3)ccc12 = 52.5
3) CN1CCC(n2cnc(-c3ccc(F)cc3)c2-c2ccnc(N)n2)CC1 = 3.49
4) [O-][S+]1CCN(Cc2ccc(-c3ccc4ncnc(Nc5ccc(OCc6cccc(F)c6)c(Cl)c5)c4c3)o2)CC1 = 4.81

Continue with the next compound.
Challenge: Find the measured inhibition of `COc1ccc(CNC(=O)c2ccc(-c3cc(-c4nnc(C)o4)ccc3C)cc2)cc1` and report it.
Response given: 0.56

* * *

Target: NUAK family SNF1-like kinase 1 (Homo sapiens);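 further: reported values are mean inhibition of ARK5 (NUAK1), from the GSK PKIS screen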
Sequence (whole entry): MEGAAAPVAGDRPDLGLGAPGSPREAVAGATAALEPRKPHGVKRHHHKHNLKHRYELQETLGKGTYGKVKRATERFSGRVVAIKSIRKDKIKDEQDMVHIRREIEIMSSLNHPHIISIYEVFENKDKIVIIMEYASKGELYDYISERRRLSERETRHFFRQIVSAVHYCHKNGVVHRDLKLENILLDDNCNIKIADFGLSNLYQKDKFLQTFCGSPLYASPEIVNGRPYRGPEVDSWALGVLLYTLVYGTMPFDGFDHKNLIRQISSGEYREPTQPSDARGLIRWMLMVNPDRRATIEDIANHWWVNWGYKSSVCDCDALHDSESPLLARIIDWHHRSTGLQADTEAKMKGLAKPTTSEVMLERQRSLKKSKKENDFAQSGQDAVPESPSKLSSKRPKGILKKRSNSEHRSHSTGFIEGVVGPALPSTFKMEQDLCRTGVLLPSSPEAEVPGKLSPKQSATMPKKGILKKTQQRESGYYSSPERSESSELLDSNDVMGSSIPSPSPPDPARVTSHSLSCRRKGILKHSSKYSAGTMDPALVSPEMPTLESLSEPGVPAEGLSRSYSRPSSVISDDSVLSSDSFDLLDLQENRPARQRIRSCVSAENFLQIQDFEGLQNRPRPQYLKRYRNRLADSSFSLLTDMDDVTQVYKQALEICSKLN
Settings: at 0.1 µM
Hi there, I'd appreciate the recorded inhibition for every entry that follows.
One number for each entry, in %.

// solved cases for inhibition follow
1. CCn1c(-c2nonc2N)nc2cnc(Oc3cccc(NC(=O)c4ccc(N(C)C)cc4)c3)cc21 = 3.21
2. Nc1nc(-c2cccc(Cl)c2)c(-c2ccc3ncccc3n2)s1 = -2.86
3. c1ccc(-c2nc3n(c2-c2ccc4c(c2)OCO4)CCC3)nc1 = 4.41

# ---- query molecule ----
Challenge: Supply recorded inhibition for `c1cc(-c2cnn3nc(N4CCOCC4)ccc23)nc(NC2CC2)n1` here.
Response given: 5.42

Reference source: ChEMBL document CHEMBL1961873
